pIC50: −log10 of the molar value.
Endpoint summary: pIC50, system: Glycogen synthase kinase-3 beta (Homo sapiens, UniProt P49841), multiple sources combined.

Reference set (5 entries):
                                   compound  result
0  COc1ccc(Cl)cc1C(=O)NC1COCCn2c1nc(-c1ccncc1)cc2=O (racemic)    8.70
1  O=C(Nc1c[nH]nc1C(=O)Nc1ccc(F)cc1)c1ccccc1  > 5.00
2  NC(=O)c1ccc(-c2ccnc(NCCCOc3ccc4ccccc4c3)n2)cc1  ≥ 5.00
3             O=C(Nc1cnccn1)Nc1cccc2ccccc12  < 5.00
4  COc1cccc(-n2ncc3c(N/N=C/c4ccc(S(=O)(=O)NCCN(C)C)cc4)ncnc32)n1  > 7.00

Query: Give pIC50; test system Glycogen synthase kinase-3 beta (Homo sapiens, UniProt P49841); compound `N#Cc1ccc(NCCNc2ncc(-c3ncc[nH]3)c(-c3ccc(Br)cc3Cl)n2)nc1`
Response: ≥ 6.00

Query: Give pIC50; test system Glycogen synthase kinase-3 beta (Homo sapiens, UniProt P49841); compound O=[N+]([O-])c1cccc(Nc2nccc(-c3cccc(CN4CCCC(CCO)C4)c3)n2)c1 (stereo not drawn)
Response: 7.70

Query: Give pIC50; test system Glycogen synthase kinase-3 beta (Homo sapiens, UniProt P49841); compound `O=C(Nc1cnccn1)Nc1cncc2ccccc12`
Response: 5.00 to 7.00

Query: Give pIC50; test system Glycogen synthase kinase-3 beta (Homo sapiens, UniProt P49841); compound `CCOC(=O)c1c(-c2ccncc2)nc(NCCNc2ccc([N+](=O)[O-])cn2)nc1-c1ccc(C(N)=O)cc1`
Response: ≥ 6.00

Query: Give pIC50; test system Glycogen synthase kinase-3 beta (Homo sapiens, UniProt P49841); compound `O=[N+]([O-])c1ccc(NCCN(CCN2CCCC2)c2ncc(-n3ccnc3)c(-c3ccc(Cl)cc3Cl)n2)nc1`
Response: ≥ 6.00

Query: Give pIC50; test system Glycogen synthase kinase-3 beta (Homo sapiens, UniProt P49841); compound O=c1cc(-c2ccncn2)nc2n1CCCCC2C1CC1 (racemic)
Response: 8.10

* * *

Endpoint summary: IC50, system: UniProt P49841, multiple sources combined.

Reference set (4 entries):
                              record_smiles  quantity    result
0  O=C(NCCN1CCOCC1)c1n[nH]cc1NC(=O)c1c(F)cccc1F      IC50   < 10 µM
1  CCOC(=O)c1c(CC)nc(NCCCNc2ccc([N+](=O)[O-])cn2)nc1-c1ccc(C(N)=O)cc1      IC50   ≤ 10 µM
2  CCOC(=O)c1cnc(NCCNc2ccc([N+](=O)[O-])cn2)nc1-c1ccc(N(C)C)cc1      IC50    ≤ 1 µM
3  COc1cccc(-n2ncc3c(N/N=C/c4ccc(S(=O)(=O)NCCN5CCOCC5)cc4)ncnc32)n1      IC50  < 0.1 µM

Query: Please give measured IC50 of the following entry: `CCOC(=O)c1cnc(NCCNc2ccc(N)cn2)nc1-c1ccc(C#N)cc1`
Response: ≤ 10 µM

* * *

Endpoint summary: pIC50, system: Glycogen synthase kinase-3 beta (Homo sapiens), multiple sources combined.
Value format note: pIC50 is -log10 of concentration (mol/L); just state the number.

Reference set (5 entries):
In [3]: df
Out[3]:
                                   molecule  numeric_value
0     CCNc1cccc(-c2ccnc(Nc3ccc(OC)cc3)n2)c1           6.85
1  O=C(Nc1cnccc1N1CCC(F)(F)CC1)c1ccnn2cc(C3CC3)nc12           9.40
2  CN1CCC2(CCn3c(nc(-c4ccncc4)cc3=O)N2CC(=O)c2ccccc2)C1 (stereo not shown)           8.22
3  COc1cc(C2=C(c3cn(CCCOC(=O)C(N)CC(C)C)c4ccccc34)C(=O)NC2=O)cc(OC)c1OC (stereo not shown)           6.87
4   Cc1ccncc1NC(=O)c1ccnn2cc(-c3ccccc3)nc12           8.46

Query: Please give measured pIC50 of the following entry: `O=C(Nc1cnccc1-c1ccccc1)c1ccnn2c(NCC3CC3)cnc12`
Response: 8.47

Query: Please give measured pIC50 of the following entry: `CO[C@H](CN1CCCn2c1nc(-c1ccncc1)c(F)c2=O)c1ccccc1`
Response: 8.22

Query: Please give measured pIC50 of the following entry: `COc1ccc(-c2ccnc(Nc3cccc(F)c3)n2)cc1`
Response: 6.85

Query: Please give measured pIC50 of the following entry: [O-][n+]1cc(NCC(O)c2ccccc2)nc(-c2ccncc2)c1 (racemic)
Response: 6.30

Query: Please give measured pIC50 of the following entry: `CCOc1ncncc1NC(=O)c1ccnn2cc(-c3ccccc3)nc12`
Response: 8.28

* * *

pIC50: −log10 of the molar value.
Endpoint summary: pIC50, system: Glycogen synthase kinase-3 beta (Homo sapiens, UniProt P49841), multiple sources combined.

Reference set (2 entries):
>>> df
                                   molecule  result
0  Cc1ccc(Nc2nccc(-c3cccc(CN4CCCCC4CO)c3)n2)cc1[N+](=O)[O-] (centres unmarked)    7.70
1  CN1CC(=O)NC/C(Cl)=C/c2cc(ccn2)-c2ncnc(n2)Nc2cccc(c2)C1  > 8.00

Query: Give pIC50; test system Glycogen synthase kinase-3 beta (Homo sapiens, UniProt P49841); molecule `CC(=O)Nc1cccc(-c2ccnc(Nc3cccc(O)c3)n2)c1`
Response: 6.82

Query: Give pIC50; test system Glycogen synthase kinase-3 beta (Homo sapiens, UniProt P49841); molecule `CCOC(=O)c1cnc(NCCNc2ccc([N+](=O)[O-])cn2)nc1-c1ccc(S(C)(=O)=O)cc1`
Response: ≥ 6.00

Query: Give pIC50; test system Glycogen synthase kinase-3 beta (Homo sapiens, UniProt P49841); molecule `O=[N+]([O-])c1ccc(NCCNc2ncc(CO)c(-c3ccc(Cl)cc3Cl)n2)nc1`
Response: ≥ 6.00

Query: Give pIC50; test system Glycogen synthase kinase-3 beta (Homo sapiens, UniProt P49841); molecule `COc1cc(C2=C(c3c[nH]c4cnccc34)C(=O)NC2=O)cc(OC)c1OC`
Response: > 8.00

Query: Give pIC50; test system Glycogen synthase kinase-3 beta (Homo sapiens, UniProt P49841); molecule `O=[N+]([O-])c1ccc(NCCNc2ccc([N+](=O)[O-])c(NCc3ccccc3)n2)nc1`
Response: ≥ 5.00

Query: Give pIC50; test system Glycogen synthase kinase-3 beta (Homo sapiens, UniProt P49841); molecule `CCOC(=O)c1cnc(NCCNc2ccc([N+](=O)[O-])cn2)nc1-c1ccc(F)cc1F`
Response: ≥ 5.00

Query: Give pIC50; test system Glycogen synthase kinase-3 beta (Homo sapiens, UniProt P49841); molecule `CC(=O)Nc1c[nH]nc1C(=O)Nc1ccc(F)cc1`
Response: > 5.00

Query: Give pIC50; test system Glycogen synthase kinase-3 beta (Homo sapiens, UniProt P49841); molecule O=[N+]([O-])c1cccc(Nc2nccc(-c3cccc(CN4CCCCC4CO)c3)n2)c1 (centres unmarked)
Response: 7.70

Query: Give pIC50; test system Glycogen synthase kinase-3 beta (Homo sapiens, UniProt P49841); molecule `CN(C)c1ccc(Nc2nccc(-c3ccc(Cl)c(Cl)c3)n2)cc1`
Response: 5.96

Query: Give pIC50; test system Glycogen synthase kinase-3 beta (Homo sapiens, UniProt P49841); molecule `O=C(Nc1cnccc1N1CCC(F)(F)CC1)c1ccnn2ccnc12`
Response: 8.34

* * *

Endpoint summary: IC50, system: Glycogen synthase kinase-3 beta (Homo sapiens), multiple sources combined.

Reference set (4 entries):
>>> df
                              record_smiles  quantity      result
0  C(=NNc1ncnc2c1cnn2-c1cccc2[nH]cnc12)c1ccncc1      IC50    < 100 nM
1  Cc1cc(Cl)ccc1-c1nc(NCCNc2ccc([N+](=O)[O-])c(N)n2)ncc1-c1ncc[nH]1      IC50   ≤ 1000 nM
2  COCCCNCCc1ccc(-c2cnc(N)c(C(=O)Nc3cccnc3)n2)cc1      IC50      ~48 nM
3  NC(=O)c1ccc(-c2ccnc(NCC(c3ccccc3)c3ccccc3)n2)cc1      IC50  ≤ 10000 nM

Query: Give IC50; test system Glycogen synthase kinase-3 beta (Homo sapiens); molecule `[O-][n+]1cc(CN2CCOCC2)ccc1-c1c(O)[nH]c2ccc(Br)nc12`
Response: 100 to 10000 nM

* * *

Endpoint summary: IC50, system: Glycogen synthase kinase-3 beta (Homo sapiens, UniProt P49841), multiple sources combined.

Reference set (3 entries):
In [3]: df
Out[3]:
                              record_smiles                            assayed_system     result
0  NC(=O)c1ccc(-c2ccnc(NCCNc3ccc(C(F)(F)F)cn3)n2)cc1  Glycogen synthase kinase-3 beta (Homo sapiens, UniProt P49841)  ≤ 1000 nM
1  COc1cc(C2=C(c3cn(CCCN(C)C)c4ccccc34)C(=O)NC2=O)cc(OC)c1OC  Glycogen synthase kinase-3 beta (Homo sapiens, UniProt P49841)  > 1000 nM
2  O=C1CN2CCN(CC2)Cc2cc(Cl)cc(c2)Nc2ncnc(n2)-c2ccnc(c2)CCCN1  Glycogen synthase kinase-3 beta (Homo sapiens, UniProt P49841)    < 10 nM

Shifting focus to the compound that follows.
Query: Give IC50; test system Glycogen synthase kinase-3 beta (Homo sapiens, UniProt P49841); compound `O=C(Nc1cnccn1)Nc1ccnc2cc(N3C[C@@H]4C[C@H]3CN4)ccc12`
Response: 100 to 10000 nM
